These data points were gathered from patent US10011596B2.

- Test system: P-gp (MDR1)
- assay-details: MDCK-MDR1 assay (permeability, efflux ratio)
- Format: in vitro ADME
- protocol-conditions: dog
reported-property: efflux ratio at 60 min, 0.5 µM
Answers are plain numbers.

Illustrative cases are given below, each with its answer.
INPUT: What does the data say about its efflux ratio at 60 min, 0.5 µM? Entry: C[C@@]1(c2cc(NC(=O)c3ccc(Cl)cn3)ccc2F)CC[C@@](F)(CF)C(N)=N1 [Compound 4]
OUTPUT: 1.34

INPUT: What does the data say about its efflux ratio at 60 min, 0.5 µM? Entry: COc1ccc(C(=O)Nc2ccc(F)c([C@]3(C)CC[C@@](F)(CF)C(N)=N3)c2)nc1 [Compound 1]
OUTPUT: 0.89

INPUT: What does the data say about its efflux ratio at 60 min, 0.5 µM? Entry: C[C@@]1(c2cc(NC(=O)c3ccc(F)cn3)ccc2F)CC[C@@](F)(CF)C(N)=N1 [Compound 13]
OUTPUT: 1.5

INPUT: What does the data say about its efflux ratio at 60 min, 0.5 µM? Entry: [2H]C([2H])([2H])Oc1ccc(C(=O)Nc2ccc(F)c([C@]3(C)CC[C@@](F)(CF)C(N)=N3)c2)nc1 [Compound 2]
OUTPUT: 2.32

INPUT: What does the data say about its efflux ratio at 60 min, 0.5 µM? Entry: COc1ccc(C(=O)Nc2ccc(F)c([C@]3(C)CC[C@](F)(CF)C(N)=N3)c2)nc1 [Compound 14]
OUTPUT: 1.06

Required: efflux ratio at 60 min, 0.5 µM, one value per compound below.
1. Cc1csc(C(=O)Nc2ccc(F)c([C@]3(C)CC[C@@](F)(CF)C(N)=N3)c2)n1 [Compound 8]
2. COc1cnc(C(=O)Nc2ccc(F)c([C@]3(CF)CC[C@](F)(CF)C(N)=N3)c2)cn1 [Compound 26]
3. C[C@@]1(c2cc(NC(=O)c3cnc(C(F)F)cn3)ccc2F)CC[C@@](F)(CF)C(N)=N1 [Compound 11]
4. COc1cnc(C(=O)Nc2cc(F)c(F)c([C@]3(C)CC[C@](F)(CF)C(N)=N3)c2)cn1 [Compound 20]
5. COc1cnc(C(=O)Nc2ccc(F)c([C@]3(C)CC[C@@](F)(CF)C(N)=N3)c2)cn1 [Compound 5]

OUTPUT:
[2.36, 0.92, 1.89, 0.77, 1.07]
